Just for reference, patent US20250340575A1 is where these values come from.

Biological target: recombinant DYRK1A kinase (Homo sapiens, UniProt Q13627)
Test: DYRK1A kinase assay (Ser/Thr 18 peptide Z-lyte FRET)
Details: DYRK1A 0.25 μg/mL, ATP 15 μM, Ser/Thr peptide 18 4 μM, one hour at room temperature, 11-point dose-response from 10 μM
Protocol: Representative compounds were screened using the assay procedure for DYRK1A kinase activity as described below. Each compound was dissolved in DMSO as a 10 mM stock and used to prepare compound source plates. […] The Emission ratio (Em) was calculated as a ratio of the coumarin (C) emission signal (at 445 nm)/Fluorescein (F) emission signal (at 520 nm). The percent phosphorylation was then calculated using the following formula: [1−((Em ratio×F100%)−C100%)/((C0%−C100%)+(Em ratio×(F100%−F0%)))]. […]
attribute-measured: IC50 (nM)

Here's what some known entries look like.
> print(dat)
                                   compound  attribute.measured  quantitative.result
1  CN1CC[C@H](Nc2nc(N)c3c(-c4ccc5ncn(CCF)c5n4)ccn3n2)[C@H](F)C1 [Compound 113]                IC50                  0.8
2  COCCN1CC[C@H](Nc2nc(N)c3c(-c4ccc5ncn(CCF)c5n4)ccn3n2)[C@H](F)C1 [Compound 114]                IC50                  1.6
3  Nc1nc(N[C@H]2CCN(C3COC3)C[C@H]2F)nn2ccc(-c3ccc4nnn(CCF)c4n3)c12 [Compound 220]                IC50                  5.2
4  CNc1nc(N[C@@H]2CCN(C)CC2(F)F)nn2cc(F)c(-c3ccc4nnn(CC(F)F)c4n3)c12 [Compound 291]                IC50                  1.2

a. CNc1nc(N[C@H]2CC[C@](C)(O)CC2)nn2cc(F)c(-c3ccc4nnn(CC(F)F)c4n3)c12 [Compound 286]
b. CNc1nc(N[C@@H]2CCN(C)CC2(F)F)nn2cc(F)c(-c3ccc4nc(C)n(CCF)c4n3)c12 [Compound 165]
*Q* // task: argmin of IC50 over [ a , b ] // caller expects the label of the chosen entry
*A* b
(b: 2.3 nM, a: 3.6 nM)
